Cited source: patent US20170298096A1

- Measurement Target: T1, His-tagged P3028 (human, also: His-tag, terminus and sequence not given here)
- T1 construct: in solution at 0.5 ug/mL over the peptide cards; found with anti-His-tag antibody and rabbit anti-mouse peroxidase (rampo); also called PGE73; not shown: His-tag
- T1 peptide: VFDEFKPLVEEPQNLIK
- Protocol Text: PEPSCAN chip ELISA, His-P3028 in solution;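 further: score is the raw OD at 405 nm from peroxidase colour with ABTS, imaged by CCD camera before and after staining, with wells showing air bubbles set to zero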
No end group written: not given here.
In this section we review reported RAMPO Score values for a set of binders.
Answer in rampo score, number only, no unit symbol.

* KKLDTFFVKLSHFTER [SEQ ID NO 351] | 460
* KKLDRFFVKLSLFTER [SEQ ID NO 309] | 430
* KKLSTFFVKLSLFTER [SEQ ID NO 451] | 344
* KKLDTFSVKLSLFTER [SEQ ID NO 10] | 700

Input KKLDTFFVKQSLFTER [SEQ ID NO 339] . Output RAMPO Score: 470

Input KKLDTFFVKLSLGTER [SEQ ID NO 100] . Output RAMPO Score: 531

Input KKLDTFFVKLSLFTMR [SEQ ID NO 524] . Output RAMPO Score: 247

Input KKLDTFLVKLSLFTER [SEQ ID NO 13] . Output RAMPO Score: 517

Input KKLDTTFVKLSLFTER [SEQ ID NO 318] . Output RAMPO Score: 481

Input TKLDTFFVKLSLFTER [SEQ ID NO 280] . Output RAMPO Score: 493

Input KKLDTFFVKLSLFWER [SEQ ID NO 386] . Output RAMPO Score: 374

Input KKGDTFFVKLSLFTER [SEQ ID NO 94] . Output RAMPO Score: 563

Input KKSDTFFVKLSLFTER [SEQ ID NO 295] . Output RAMPO Score: 393

Input IKLDTFFVKLSLFTER [SEQ ID NO 273] . Output RAMPO Score: 483

Input KWLDTFFVKLSLFTER [SEQ ID NO 490] . Output RAMPO Score: 304
